Values from patent US11938128B2

Assay: BAI-A22 pharmacokinetics in rats, non-compartmental analysis
Format: in vivo
Conditions: rat, plasma, iv; male Sprague Dawley rats, 1 mg/kg intravenously, NCA; unit is a drawing
metric: AUC(0-inf) (ng·h/mL)
Report the value in ng·h/mL with no unit label.

QUERY: GET /values?readout=AUC(0-inf)&item= OC(CN1CCNCC1)CN(c1ccccc1)c1ccc(Br)cc1 (stereo not shown) [BAI-A22]
RESULT: 524

###

Experiment: pharmacokinetic properties, half-life in plasma
Format: in vivo
Consider the following molecules; for each one, report its half-life.
Report the value in h with no unit label.

QUERY: GET /values?readout=half-life&item= OC(CN1CCNCC1)CN(c1ccccc1)c1ccc(Br)cc1 (centres unmarked)
RESULT: 5

QUERY: Proceed to OC(CN1CCNCC1)Cn1c2ccccc2c2ccccc21 (centres unmarked)
RESULT: 3.5
